# Tested on: RXRa DBDmut IVT, anti-RXR (DBD mutation: RXRa K156A/R161A, NR concentration 90 nM)
# measurement_protocol: PBM binding z-score (relative to random genomic background probes); higher = stronger binding; sequences stand for … in GC…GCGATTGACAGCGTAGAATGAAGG
Use 1 when the recorded PBM binding z-score is no lower than 2; use -1 when it is lower.

| item_sequence | group |
| --- | --- |
| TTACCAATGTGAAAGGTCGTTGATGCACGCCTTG | -1 |
| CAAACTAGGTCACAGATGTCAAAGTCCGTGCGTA | 1 |
| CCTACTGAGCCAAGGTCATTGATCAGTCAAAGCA | 1 |
| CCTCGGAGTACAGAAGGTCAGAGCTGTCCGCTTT | -1 |
| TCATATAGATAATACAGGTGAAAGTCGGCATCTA | 1 |
| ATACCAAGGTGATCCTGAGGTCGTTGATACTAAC | -1 |
| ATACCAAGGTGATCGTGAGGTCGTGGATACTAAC | -1 |
| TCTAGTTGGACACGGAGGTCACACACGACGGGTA | -1 |
| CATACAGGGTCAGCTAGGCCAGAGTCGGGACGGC | 1 |
| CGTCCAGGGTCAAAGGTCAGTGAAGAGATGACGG | 1 |
| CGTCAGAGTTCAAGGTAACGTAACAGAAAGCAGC | 1 |
| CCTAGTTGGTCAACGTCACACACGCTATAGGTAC | -1 |
| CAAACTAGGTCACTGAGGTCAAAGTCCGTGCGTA | 1 |
| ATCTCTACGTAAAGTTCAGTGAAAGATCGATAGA | -1 |
| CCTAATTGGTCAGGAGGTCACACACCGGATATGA | -1 |
| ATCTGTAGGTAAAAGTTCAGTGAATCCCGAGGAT | -1 |
| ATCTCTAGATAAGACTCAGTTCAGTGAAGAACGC | -1 |
| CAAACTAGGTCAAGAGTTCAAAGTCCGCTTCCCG | 1 |
| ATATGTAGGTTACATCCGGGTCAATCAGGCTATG | -1 |
| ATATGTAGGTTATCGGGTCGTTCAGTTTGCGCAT | -1 |
| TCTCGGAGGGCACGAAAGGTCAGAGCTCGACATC | -1 |
| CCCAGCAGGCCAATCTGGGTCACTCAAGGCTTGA | -1 |
| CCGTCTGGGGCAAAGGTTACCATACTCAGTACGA | -1 |
| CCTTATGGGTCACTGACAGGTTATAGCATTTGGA | -1 |
| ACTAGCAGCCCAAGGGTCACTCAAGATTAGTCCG | -1 |

These measurements were taken from the supplement of paper PMC6555819.
